Give Mean stability sample ±SD for every item shown.
experiment: Stability of the analytes in beagle dog plasma (bench top, refrigerator, freeze–thaw, autosampler, short and long term storage); format: physicochemical; details: short term, −20°C, 48 h; dog plasma; LQC; n = 5
Could you give the number and then its unit, please?

Lab note: measured Mean stability sample ±SD of O=C(C1CCCCC1)N1CC(=O)N2CCc3ccccc3C2C1 (stereo not shown) [Praziquantel, praziquantel] was 45.15 ± 3.68 ng/mL

Form field Mean stability sample ±SD, entry CN1CCCN=C1/C=C/c1cccs1 [Pyrantel, pyrantel] : 12.05 ± 0.92 ng/mL

The reported value for COC(=O)Nc1nc2ccc([S+]([O-])c3ccccc3)cc2[nH]1 (stereo not shown) [Qxfendazole, oxfendazole] in terms of Mean stability sample ±SD is 11.80 ± 0.79 ng/mL

The molecule listed as COC(=O)Nc1nc2ccc(Sc3ccccc3)cc2[nH]1 [Fenbendazole, fenbendazole] has a reported Mean stability sample ±SD of 30.94 ± 2.18 ng/mL

Recorded values, source paper PMC11864945.
